Source listed as ChEMBL document CHEMBL2040802.

assay_remarks: Myorelaxant effect in oxytoxin-induced Wistar rat uterus smooth muscle assessed as residual contractile activity by continuous superfusion of oxytocin at 50 uM
Assay type: functional
Assignment: determine reported Activity for the given molecules.
Write the number in % without appending the unit.

Give its Activity value. Item: CC(N/C(=N\C#N)Nc1ccncc1)C(C)(C)C (centres undefined) [PINACIDIL ANHYDROUS] 35.5

Give its Activity value. Item: CC1(C)CC(NC(=O)C2=NS(=O)(=O)c3cc(Cl)ccc3N2)c2cc([N+](=O)[O-])ccc2O1 (centres undefined) 70.9

Give its Activity value. Item: CC1(C)CC(NC(=O)C2=NS(=O)(=O)c3ccccc3N2)c2cc([N+](=O)[O-])ccc2O1 (centres undefined) 62.4

Give its Activity value. Item: CC1=Nc2ccc(Cl)cc2S(=O)(=O)N1 [DIAZOXIDE] 76.3
